- PROTOCOL_DETAILS: NCI Yeast Anticancer Drug Screen. Data for the bub3 strain (AID 167)
- CONDITION_INFO: S. cerevisiae bub3 mutant strain, at 50.0 µM
This is part of a sample that, as a whole, favours compounds with a hit. Of some 79,000 tested, about 15% had one in any assay. Activity calls are given as the source filed them. Rule as the data show it: active = growth inhibition above about 70%; inactive = the rest.
Outcome codes: active, inactive

                                    molecule  class_name
 0          COc1cc(/C=C2/Cc3ccccc3C2=O)ccc1O    inactive
 1                        ClCCOCCOc1ccccc1Cl    inactive
 2                  COc1ccccc1/C=C(\C)C(=O)O    inactive
 3      CC1(C)OC(=O)c2c(cc(N3CCOCC3)oc2=O)O1    inactive
 4                   CCCCn1cnc2ccc(N)cc2c1=O    inactive
 5          O=C(O)CCc1ccc([N+](=O)[O-])cc1Cl    inactive
 6          CCCn1c(C)nc2cc(C(F)(F)F)cc(N)c21    inactive
 7  O=c1n(-c2ccccc2)c(=O)n2c(=O)n(-c3ccccc3)c(=O)n12    inactive
 8  CCOC(=O)CCCCCCCCCCCCC1C=CCC1 (centres undefined)    inactive
 9  CC1(C)OC(=O)C=C([O-])O1.CC1(C)OC(=O)C=C([O-])O1.CC[O-].CC[O-].[Ti+4]    inactive
10  O=C1C2=C(Nc3cc([N+](=O)[O-])ccc3N2)OC1c1ccc(Cl)cc1Cl (centres undefined)    inactive
11  CCCCCCCCN1CSC(=S)N(c2ccc3[nH]c(=S)sc3c2)C1    inactive
12  C=C[C@@]1(C)CC(=O)[C@]2(O)[C@@]3(C)[C@@H](O)CCC(C)(C)[C@@H]3[C@H](O)[C@@H](OC(C)=O)[C@@]2(C)O1    inactive
13    CC12CC3CC(C)(C1)CC(SCCN=C(N)CCl)(C3)C2      active

----------
- PROTOCOL_DETAILS: NCI Yeast Anticancer Drug Screen. Data for the mlh1 rad18 strain (AID 175)
- CONDITION_INFO: S. cerevisiae mlh1 rad18 strain growth inhibition; at 50.0 µM
This is part of a sample that, as a whole, favours compounds with a hit. Of some 79,000 tested, about 15% had one in any assay. The source made the active and inactive calls. No stated cut-off is given here; in the data, active means growth inhibition above about 70%; inactive means the rest.
Possible outcomes: active, inactive

MOLECULE	CLASS_NAME
CC(=O)C1CCC(C)(O)CC1=O (stereo not drawn)	inactive
COc1cc(C(=O)O)cc(OC)c1OC(C)=O	inactive
CCN=C(C#N)NCC	inactive
Cc1cccc(NC(=O)c2cccc([N+](=O)[O-])c2C(=O)O)c1C	inactive
CC1CCCc2c(CC3CC(=O)NC(=O)C3)nc(N)nc21 (stereo not drawn)	inactive
O=[N+]([O-])CC1CCCCC1	inactive
O=C1c2ccccc2CC12Cc1ccc3c(c1C2=O)CCCC3 (stereo not drawn)	inactive
Nn1c(SSSSc2nnc(-c3ccccc3)n2N)nnc1-c1ccccc1	inactive
CCCCCCCCCCCCCCCCOc1ccc(S(=O)(=O)NC(C)(C)C)cc1[N+](=O)[O-]	inactive
CC(O)C1OC(O)C2OC(C)(C)OC12 (stereo not drawn)	inactive
COc1cc(NCCN=C(N)NC#N)c2ncccc2c1	inactive
CCCC(=O)OC1C=C2N3C(=O)C4CC56C(=CC(OC(C)=O)C7OC75)N4C(=O)C3CC26C2OC12 (stereo not drawn)	active
O=C(NCCc1ccccc1)c1c(O)c2ccccc2[nH]c1=O	inactive
CCOc1c(N=Nc2ccccc2C)c(-c2ccccc2)nn1C(N)=S	inactive
COc1cc(N)ccc1C(=O)NC(CCC(=O)O)C(=O)O (stereo not drawn)	inactive
COC(=O)Cc1ccccn1	inactive
COc1ccc(/C=C/C(=O)C(C)(C)C)cc1OC	inactive
O=C(NC1CCCCC1)N(C(=O)C(F)(F)F)C1CCCCC1	inactive
COc1ccc(NC(=O)CSc2cc(Cl)ccc2Cl)cc1	inactive
Fc1ccc(CSc2cnnc(SCc3ccc(F)cc3)c2SCc2ccc(F)cc2)cc1	inactive
CC(=O)/C(=C/n1c(=S)sc2ccccc21)C(=O)Nc1ccc([N+](=O)[O-])cc1	inactive
Cc1cc2oc3c(c2c(=O)[nH]1)C(=O)c1ccccc1C3=O	inactive
CCOC(=O)C(NC(C)=O)C(C)O (stereo not drawn)	inactive
COc1ccc(C2SCC(=O)N2NC(=O)c2ccc(NC(C)=O)cc2)c(OC)c1 (stereo not drawn)	inactive
O=c1ccc2ccc(OP(=O)(O)O)cc2o1	inactive
CCOC(=O)C(=O)SCC(NC(=O)OCc1ccccc1)C(=O)O (stereo not drawn)	inactive
CCCCN(CCCC)CC(O)c1cc(-c2ccc(Cl)cc2)nc2c(Cl)cc(Cl)cc12 (stereo not drawn)	inactive
Clc1cccc(Cl)c1/C=N/N1CCN(/N=C/c2c(Cl)cccc2Cl)CC1	inactive
CCOC(=O)NC(=O)c1cn(CC(=O)NCC(=O)NCC(=O)NCCCN2CCN(CCCNC(=O)CNC(=O)CNC(=O)Cn3cc(C(=O)NC(=O)OCC)c(=O)[nH]c3=O)CC2)c(=O)[nH]c1=O	inactive
CCSCCNC(=O)NS(=O)(=O)c1ccc(C)cc1	inactive
CC(O)(c1ccccc1)C1CC1 (stereo not drawn)	inactive
Nc1cc(=O)[nH]c(SC2OC(CO)C(O)C2O)n1 (stereo not drawn)	inactive
COC(=O)c1c(C(=O)Nc2ccc(Cl)cc2)c(C)n(NC(N)=O)c1C	inactive
CC1CCC(C(C)(C)O)CC1O (stereo not drawn)	inactive
O=C(NCc1ccccc1)C1C2C=CC(C2)C1C(=O)NCc1ccccc1 (stereo not drawn)	inactive
Nc1ccc2c(c1)C(=O)c1cc(C(=O)O)ccc1-2	inactive
COc1cc(C)c(C(=O)c2ccccc2NS(=O)(=O)c2ccc(C)cc2)cc1OC	inactive
CCCCCCN(C(=O)Oc1ccccc1)C(C#N)c1ccccc1 (stereo not drawn)	inactive
O=C(O)CNCc1ccc(F)cc1	inactive
Nc1nc(SCc2ccccc2)c2ncn(C3CC(O)C(CO)O3)c2n1 (stereo not drawn)	inactive
Cc1ccc(-n2cnc3c(Cl)ncnc32)cc1	inactive
CCOC(=O)COc1cc2c(cc1C(CC)c1ccccc1)OCO2 (stereo not drawn)	inactive
COC(=O)C1(C(=O)OC)OC(c2ccc(OC)cc2)[C@H]2C(=O)N(C)C(=O)[C@H]21 (stereo partly drawn)	inactive
